# Test system: IGROV1 ovarian
# procedure-summary: NCI-60 one-dose screen, 48 h (100 = growth as untreated, 0 = no growth, -100 = all killed)
# assay-context: 10 µM unless noted
Compounds without any hit were thinned out: in the full panel of roughly 83,000, 20% have a hit.

compound	assayed-system	unit	growth
COc1ccc(/C=C\c2cc(OC)c(OC)c(OC)c2)cc1OC(=O)c1cccc(Cn2cc(CCOC(=O)[C@H](N)Cc3cn(C)c4ccccc34)nn2)c1	IGROV1 ovarian	%	16.2
O=C1c2cccc3cccc(c23)C(=O)N1CCCCCN1CCN(CCCCCOc2ccc(-c3nc4ccc(N5CCOCC5)cc4[nH]3)cc2)CC1	IGROV1 ovarian	%	44.3
O=C(COc1cccc(/C=C2\COc3ccc(Cl)cc3C2=O)c1)c1ccc(Cl)cc1	IGROV1 ovarian	%	38.3
CCC#CC[C@H](O)C/C=C1/C(=O)C=C[C@@H]1C/C=C\CCCC(=O)OC	IGROV1 ovarian	%	14
COc1ccccc1NS(=O)(=O)c1ccc2oc(SC(C)C)nc2c1	IGROV1 ovarian	%	92.1
O=C1Nc2ccc(Br)cc2C12Oc1ccccc1C1CC(c3ccc(F)cc3)=NN12 (centres undefined)	IGROV1 ovarian	%	72.8
Cc1ccc(-c2onc3c(=O)[nH]nc(-c4ccccc4)c23)cc1	IGROV1 ovarian	%	52.4
Cn1cc(C(=O)c2nc(-c3c[nH]c4ccc(Br)cc34)no2)c2cc(F)ccc21	IGROV1 ovarian	%	61.3
CC[N+](CC)=c1sc2c(s1)C(c1ccc(Cl)cc1)Oc1ccc(Cl)cc1-2 (centres undefined)	IGROV1 ovarian	%	9.22

###

# System: HS 578T breast
# procedure-summary: NCI-60 one-dose screen, 48 h (100 = growth as untreated, 0 = no growth, -100 = all killed)
# assay-context: 10 µM unless noted
This is part of a sample that, as a whole, favours compounds with a hit. Of some 83,000 tested, about 20% had one in any assay.
Quick rule for you: growth at 80% or higher means Yes, lower means No.

smiles-structure	discrete-label
O=S(=O)(Nc1ccc(OC(F)F)cc1)c1ccc(-c2cnc(C3CC3)o2)cc1	No
O=C1c2cccc3cccc(c23)C(=O)N1CCCCCN1CCN(CCCCCOc2ccc(-c3nc4ccc(N5CCOCC5)cc4[nH]3)cc2)CC1	Yes
COc1ccc(/C=C/c2nc(-c3n[nH]c(=O)n3-c3ccccc3)c3ccccc3n2)cc1	Yes
COc1cccc(-c2nc3sccn3c2-c2ccnc(NCCNS(=O)(=O)c3ccc(F)cc3)c2)c1	No
Cn1cc(-c2nonc2-c2c[nH]c3ccccc23)c2cccnc21	No

###

# Tested on: CAKI-1 renal
# procedure-summary: NCI-60 one-dose screen, 48 h
# assay-context: 10 µM unless noted
# Description: Growth inhibition of the CAKI-1 human tumor cell line is measured as a screen for anti-cancer activity. Cells are grown in 96 well plates and exposed to the test compound for 48 hours. Compounds are tested at a single concentration, which is 10^-5 M for most compounds. The reported endpoint is percent growth (GI% or GIPRCNT), where numbers from 0 - 100% represent growth inhibition, and numbers from -100% - 0 represent cell death. For example, a value of 40 represents 60% growth inhibition. […]
About 83,000 compounds went through this panel and 20% of them were active in at least one assay; those are over-represented in the sample as a whole. Active and inactive are the calls of the source. The calls were made as follows: active = growth percent below 10; inactive = the rest.
Outcome codes: yes for active, no for inactive

compound	assayed-system	discrete-label
COc1ccc(-n2nc(C)c3c(Nc4ccc(NC(=O)Nc5ccc(Cl)c(C(F)(F)F)c5)cc4)ncnc32)cc1	CAKI-1 renal	yes
N#CN1CC[C@H](C(=O)Nc2cc3cc(C(N)=O)ccc3cn2)C1	CAKI-1 renal	no
COc1cc2nc(N3CCCC3)nc(Nc3ccccc3)c2cc1OC	CAKI-1 renal	yes
CN1CCN(Cc2ccc(NC(=O)c3cncc(C#Cc4cncn5ccnc45)c3)cc2C(F)(F)F)CC1	CAKI-1 renal	no
CC(C)C1=C[C@@]23CC[C@@H]4[C@](C)(CCC[C@@]4(C)C(=O)N4CCCNCC4)[C@H]2C[C@@H]1[C@H]1C(=O)CCC(=O)[C@H]13	CAKI-1 renal	no
O=C(/C=C/c1ccc(C(F)(F)F)cc1)Nc1ccc(C=C2c3ccccc3C(=O)c3ccccc32)cc1	CAKI-1 renal	no
CCOC(=O)n1cc(-c2nonc2-c2cn(C)c3ncccc23)c2ccccc21	CAKI-1 renal	no
N#CCCN=Nc1c(O)[nH]c2ccc([N+](=O)[O-])cc12	CAKI-1 renal	no
C=C(C)[C@@H]1CC[C@]2(C(=O)OC)CC[C@]3(C)[C@H](CC[C@@H]4[C@@]5(C)C/C(=C/c6ccc(OC)cc6)C(=O)C(C)(C)[C@@H]5CC[C@]43C)[C@@H]12	CAKI-1 renal	no
NCCNc1nc(Nc2ccc(-c3nc4ccccc4[nH]3)cc2)c2cn[nH]c2n1	CAKI-1 renal	no
COc1cccc(C2=NN3C(C2)c2cc(Br)cc(OC)c2OC32CCN(Cc3ccccc3)CC2)c1 (centres undefined)	CAKI-1 renal	no
O=C(N=Nc1c(O)[nH]c2ccc(Br)cc12)c1cc(-c2ccccc2)on1	CAKI-1 renal	no
Fc1ccc2[nH]cc(SSc3c[nH]c4ccc(F)cc34)c2c1	CAKI-1 renal	no
Cc1nn(-c2ccc(F)cc2)c2ncnc(Oc3ccc(NC(=O)Nc4ccc(Cl)c(C(F)(F)F)c4)cc3)c12	CAKI-1 renal	no
O=C(O)c1c(=O)cccc2ssc12	CAKI-1 renal	no
O=C1/C(=C/c2cn(-c3ccccc3)nc2-c2ccccc2)SC(=S)N1CCc1ccccc1	CAKI-1 renal	no
O=S(=O)(Nc1ccc(NS(=O)(=O)c2ccccc2)c(Cl)c1)c1ccccc1	CAKI-1 renal	no
CC(C)CSc1nc(N)nc2c1ncn2C1OC(CO)C(O)C1O (centres undefined)	CAKI-1 renal	no
O=C1/C(=C/C(Cl)=C/c2ccccc2)SC(=S)N1CCc1ccc(O)cc1	CAKI-1 renal	yes
